We begin with a simple list: items and their reported IC50.
TARGET_DESC: PI3Kδ (Homo sapiens)
Construct: made in house
TEST_PROTOCOL: TR-FRET enzymatic activity assay, PI3Kδ
Type: biochemical
EXPERIMENTAL_SETUP: recombinant heterodimeric PI3Kδ 25-50 pM, 2× Km ATP, 30 minutes at 25°C
// unit must come after the numeric part

Consider the reported IC50 for these compounds:
compound="CC[C@H](Nc1nc(N)nc(N)c1C#N)c1nc2c(F)ccc(Cl)c2c(=O)n1N1CCN(Cc2ccccc2)CC1 [Compound 95]" target_desc="PI3Kδ (Homo sapiens)" readout=IC50 test_value="38 nM"
compound="C[C@H](NC(=O)c1c(N)nn2cccnc12)c1nc2cccc(Cl)c2c(=O)n1N1CCNCC1 [Compound 36]" target_desc="PI3Kδ (Homo sapiens)" readout=IC50 test_value="56 nM"
compound="C[C@H](Nc1nc(N)nc(Cl)c1C#N)c1nc2cccc(Cl)c2c(=O)n1N1CCN(CC(F)F)CC1 [Compound 113]" target_desc="PI3Kδ (Homo sapiens)" readout=IC50 test_value="42 nM"
compound="C[C@H](Nc1ncnc(N)c1C#N)c1nc2cccc(Cl)c2c(=O)n1N1CCN(C)CC1 [Compound 5]" target_desc="PI3Kδ (Homo sapiens)" readout=IC50 test_value="19 nM"
compound="C[C@H](Nc1nc(N)nc(N)c1C#N)c1nc2cccc(Cl)c2c(=O)n1C1CCNCC1 [Compound 26]" target_desc="PI3Kδ (Homo sapiens)" readout=IC50 test_value="2 nM"
compound="C[C@H](Nc1ncnn2ccnc12)c1nc2cccc(Cl)c2c(=O)n1N1CCNCC1 [Compound 65]" target_desc="PI3Kδ (Homo sapiens)" readout=IC50 test_value="8 nM"

Query :: Look up IC50 for this compound: C[C@H](Nc1nc(N)nc(N)c1C#N)c1nc2c(F)ccc(Cl)c2c(=O)n1N1CCNCC1 [Compound 54]
Result :: 2 nM

Query :: Look up IC50 for this compound: C[C@H](Nc1nc(N)nc(N)c1Cl)c1nc2cccc(Cl)c2c(=O)n1N1CCNCC1 [Compound 72]
Result :: 11 nM

Query :: Look up IC50 for this compound: CC(C)N1CCN(n2c([C@H](C)Nc3nc(N)nc(N)c3C#N)nc3cccc(Cl)c3c2=O)CC1 [Compound 88]
Result :: 54 nM

Query :: Look up IC50 for this compound: C[C@H](Nc1ncnc2scnc12)c1nc2cccc(Cl)c2c(=O)n1N1CCNCC1 [Compound 70]
Result :: 3 nM

Query :: Look up IC50 for this compound: CC[C@H](Nc1nc(N)nc(N)c1C#N)c1nc2cccc(Cl)c2c(=O)n1C1CCNCC1 [Compound 22]
Result :: 5 nM

Query :: Look up IC50 for this compound: C[C@H](Nc1nc(N)nc(N)c1Cl)c1nc2cccc(Cl)c2c(=O)n1[C@H]1CCCNCC1 [Compound 12]
Result :: 56 nM

Query :: Look up IC50 for this compound: C[C@H](Nc1nc(N)nc(N)c1C#N)c1nc2cccc(Cl)c2c(=O)n1C1CCN(CC(F)F)CC1 [Compound 99]
Result :: 14 nM

Query :: Look up IC50 for this compound: O=c1c2c(Cl)ccc(F)c2nc([C@@H](Nc2ncnn3ccnc23)C2CC2)n1N1CCNCC1 [Compound 47]
Result :: 5 nM

Query :: Look up IC50 for this compound: C[C@H](Nc1nc(N)nc(N)c1C#N)c1nc2cccc(Cl)c2c(=O)n1N1CCN(CC(C)(C)C)CC1 [Compound 98]
Result :: 5 nM

Query :: Look up IC50 for this compound: C[C@H](Nc1nc(N)nc(N)c1C#N)c1nc2cccc(Cl)c2c(=O)n1-c1ccccc1 [Compound X, reference compound]
Result :: 0.2 nM

Query :: Look up IC50 for this compound: N#Cc1c(N)nc(N)nc1N[C@H](c1nc2cccc(Cl)c2c(=O)n1N1CCN(Cc2ccccc2)CC1)C1CC1 [Compound 93]
Result :: 18 nM

Query :: Look up IC50 for this compound: C[C@H](Nc1ncnn2ccnc12)c1nc2cccc(Cl)c2c(=O)n1N1CCCNCC1 [Compound 64]
Result :: 9 nM

Query :: Look up IC50 for this compound: Cc1nc(N)c(C(=O)N[C@@H](C)c2nc3cccc(Cl)c3c(=O)n2N2CCNCC2)nc1C [Compound 59]
Result :: 280 nM

Query :: Look up IC50 for this compound: C[C@H](Nc1ncnc2[nH]cc(Br)c12)c1nc2cccc(Cl)c2c(=O)n1N1CCNCC1 [Compound 69]
Result :: 1 nM

Query :: Look up IC50 for this compound: C[C@H](Nc1nc(N)nc(N)c1C#N)c1nc2cccc(Cl)c2c(=O)n1N1CCN(C)CC1 [Compound 125]
Result :: 6 nM

Query :: Look up IC50 for this compound: C[C@H](Nc1ncnc2[nH]cnc12)c1nc2cccc(Cl)c2c(=O)n1C1CCN(C)CC1 [Compound 120]
Result :: 14 nM

Query :: Look up IC50 for this compound: C[C@H](Nc1ncnc2scnc12)c1nc2cccc(Cl)c2c(=O)n1C1CCNCC1 [Compound 18]
Result :: 9 nM

Query :: Look up IC50 for this compound: CN1CCN(n2c([C@@H](Nc3nc(N)nc(N)c3Cl)C3CC3)nc3cccc(Cl)c3c2=O)CC1 [Compound 2]
Result :: 260 nM

Query :: Look up IC50 for this compound: C[C@H](Nc1ncnc2scc(Cl)c12)c1nc2cccc(Cl)c2c(=O)n1N1CCNCC1 [Compound 35]
Result :: 93 nM

Query :: Look up IC50 for this compound: C[C@H](Nc1nc(N)nc(N)c1C#N)c1nc2c(Cl)ccc(Cl)c2c(=O)n1N1CCNCC1 [Compound 53]
Result :: 3 nM

====

TARGET_DESC: PI3Kδ (Homo sapiens, UniProt O00329)
Construct: made in house
Sequence (O00329 whole entry): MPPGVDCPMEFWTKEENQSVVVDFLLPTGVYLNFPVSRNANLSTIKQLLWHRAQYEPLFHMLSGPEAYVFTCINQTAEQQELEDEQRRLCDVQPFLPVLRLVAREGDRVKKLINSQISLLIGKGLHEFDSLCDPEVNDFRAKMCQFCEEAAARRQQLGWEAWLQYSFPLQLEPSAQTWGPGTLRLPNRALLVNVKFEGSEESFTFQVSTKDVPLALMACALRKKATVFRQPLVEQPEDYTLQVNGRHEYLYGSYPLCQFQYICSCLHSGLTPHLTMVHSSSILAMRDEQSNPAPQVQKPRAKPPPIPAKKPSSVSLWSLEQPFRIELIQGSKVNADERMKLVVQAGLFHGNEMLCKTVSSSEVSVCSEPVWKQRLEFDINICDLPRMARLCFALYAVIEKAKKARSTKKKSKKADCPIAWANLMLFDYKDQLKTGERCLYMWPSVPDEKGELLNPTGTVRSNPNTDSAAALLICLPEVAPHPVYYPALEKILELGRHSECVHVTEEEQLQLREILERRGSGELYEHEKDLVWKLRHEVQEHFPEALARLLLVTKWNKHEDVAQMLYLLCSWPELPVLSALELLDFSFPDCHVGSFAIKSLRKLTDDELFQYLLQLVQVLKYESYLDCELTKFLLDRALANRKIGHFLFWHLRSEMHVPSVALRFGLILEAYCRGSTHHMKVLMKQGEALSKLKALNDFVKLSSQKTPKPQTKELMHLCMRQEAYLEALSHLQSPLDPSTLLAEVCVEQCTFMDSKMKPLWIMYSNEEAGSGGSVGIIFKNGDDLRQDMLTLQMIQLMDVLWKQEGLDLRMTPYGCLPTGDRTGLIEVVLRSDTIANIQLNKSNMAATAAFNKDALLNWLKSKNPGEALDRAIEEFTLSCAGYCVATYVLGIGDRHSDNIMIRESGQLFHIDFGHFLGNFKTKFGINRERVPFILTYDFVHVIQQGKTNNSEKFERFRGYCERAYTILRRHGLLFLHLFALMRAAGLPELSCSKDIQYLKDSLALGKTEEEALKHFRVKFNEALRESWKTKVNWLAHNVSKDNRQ
Sequence (P27986 whole entry partner): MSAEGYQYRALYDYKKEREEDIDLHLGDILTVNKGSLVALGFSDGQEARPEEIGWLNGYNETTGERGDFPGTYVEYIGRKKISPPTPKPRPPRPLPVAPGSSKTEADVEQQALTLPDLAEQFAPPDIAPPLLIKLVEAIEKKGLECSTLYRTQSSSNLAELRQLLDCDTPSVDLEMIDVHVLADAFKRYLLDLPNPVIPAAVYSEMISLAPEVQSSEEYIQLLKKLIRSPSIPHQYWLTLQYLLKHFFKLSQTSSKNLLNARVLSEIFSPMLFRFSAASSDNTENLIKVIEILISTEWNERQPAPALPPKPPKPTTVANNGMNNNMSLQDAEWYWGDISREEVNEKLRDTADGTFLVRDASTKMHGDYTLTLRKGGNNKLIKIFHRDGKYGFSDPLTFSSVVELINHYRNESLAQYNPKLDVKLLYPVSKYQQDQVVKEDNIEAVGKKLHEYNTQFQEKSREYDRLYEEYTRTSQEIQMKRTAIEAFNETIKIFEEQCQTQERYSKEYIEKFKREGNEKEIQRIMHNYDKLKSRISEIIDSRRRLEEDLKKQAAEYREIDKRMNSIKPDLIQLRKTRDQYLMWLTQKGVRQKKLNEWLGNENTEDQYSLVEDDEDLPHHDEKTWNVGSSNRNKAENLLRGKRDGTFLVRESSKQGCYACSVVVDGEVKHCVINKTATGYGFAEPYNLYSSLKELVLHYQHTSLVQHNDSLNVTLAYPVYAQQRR
TEST_PROTOCOL: TR-FRET enzymatic activity assay, PI3Kδ
Assay type: biochemical
EXPERIMENTAL_SETUP: recombinant heterodimeric PI3Kδ 25-50 pM, 2× Km ATP, 30 minutes at 25°C
pIC50: −log10 of the molar value.
Use condition met when the recorded pIC50 is no lower than 8; use condition not met when it is lower.

molecule=C[C@H](Nc1nc(N)nc(N)c1C#N)c1nc2c(F)ccc(F)c2c(=O)n1N1CCNCC1 target_desc="PI3Kδ (Homo sapiens, UniProt O00329)" category_label="condition met"
molecule=C[C@H](Nc1nc(N)nc(N)c1C#N)c1nc2cccc(Cl)c2c(=O)n1[C@@H]1CCNC1 target_desc="PI3Kδ (Homo sapiens, UniProt O00329)" category_label="condition not met"
molecule=Cc1nc(N)nc(N[C@@H](C)c2nc3cccc(Cl)c3c(=O)n2C2CCNCC2)c1C#N target_desc="PI3Kδ (Homo sapiens, UniProt O00329)" category_label="condition met"
molecule=C[C@H](Nc1nc(N)nc(N)c1C#N)c1nc2cccc(Cl)c2c(=O)n1N1CCC(N)CC1 target_desc="PI3Kδ (Homo sapiens, UniProt O00329)" category_label="condition met"
molecule=C[C@H](Nc1ncnc(N)c1C#N)c1nc2cccc(Cl)c2c(=O)n1C1CCNCC1 target_desc="PI3Kδ (Homo sapiens, UniProt O00329)" category_label="condition met"
molecule=C[C@H](Nc1nc(N)nc(N)c1C#N)c1nc2cccc(Cl)c2c(=O)n1N1CCN(CC(F)F)CC1 target_desc="PI3Kδ (Homo sapiens, UniProt O00329)" category_label="condition not met"
molecule=CC[C@H](Nc1nc(N)nc(N)c1C#N)c1nc2cccc(Cl)c2c(=O)n1N1CCN(Cc2ccccc2)CC1 target_desc="PI3Kδ (Homo sapiens, UniProt O00329)" category_label="condition not met"
molecule=O=c1c2c(Cl)cccc2nc([C@@H](Nc2ncnc3scnc23)C2CC2)n1N1CCNCC1 target_desc="PI3Kδ (Homo sapiens, UniProt O00329)" category_label="condition met"

Now look at this one.
Query :: Is pIC50 for "C[C@H](Nc1nc(N)nc(N)c1C#N)c1nc2cccc(Cl)c2c(=O)n1[C@H]1CCOC1" at or above 8?
Result :: condition met

====

TARGET_DESC: PI3Kγ (Homo sapiens)
Construct: made in house
Sequence (P48736 whole entry): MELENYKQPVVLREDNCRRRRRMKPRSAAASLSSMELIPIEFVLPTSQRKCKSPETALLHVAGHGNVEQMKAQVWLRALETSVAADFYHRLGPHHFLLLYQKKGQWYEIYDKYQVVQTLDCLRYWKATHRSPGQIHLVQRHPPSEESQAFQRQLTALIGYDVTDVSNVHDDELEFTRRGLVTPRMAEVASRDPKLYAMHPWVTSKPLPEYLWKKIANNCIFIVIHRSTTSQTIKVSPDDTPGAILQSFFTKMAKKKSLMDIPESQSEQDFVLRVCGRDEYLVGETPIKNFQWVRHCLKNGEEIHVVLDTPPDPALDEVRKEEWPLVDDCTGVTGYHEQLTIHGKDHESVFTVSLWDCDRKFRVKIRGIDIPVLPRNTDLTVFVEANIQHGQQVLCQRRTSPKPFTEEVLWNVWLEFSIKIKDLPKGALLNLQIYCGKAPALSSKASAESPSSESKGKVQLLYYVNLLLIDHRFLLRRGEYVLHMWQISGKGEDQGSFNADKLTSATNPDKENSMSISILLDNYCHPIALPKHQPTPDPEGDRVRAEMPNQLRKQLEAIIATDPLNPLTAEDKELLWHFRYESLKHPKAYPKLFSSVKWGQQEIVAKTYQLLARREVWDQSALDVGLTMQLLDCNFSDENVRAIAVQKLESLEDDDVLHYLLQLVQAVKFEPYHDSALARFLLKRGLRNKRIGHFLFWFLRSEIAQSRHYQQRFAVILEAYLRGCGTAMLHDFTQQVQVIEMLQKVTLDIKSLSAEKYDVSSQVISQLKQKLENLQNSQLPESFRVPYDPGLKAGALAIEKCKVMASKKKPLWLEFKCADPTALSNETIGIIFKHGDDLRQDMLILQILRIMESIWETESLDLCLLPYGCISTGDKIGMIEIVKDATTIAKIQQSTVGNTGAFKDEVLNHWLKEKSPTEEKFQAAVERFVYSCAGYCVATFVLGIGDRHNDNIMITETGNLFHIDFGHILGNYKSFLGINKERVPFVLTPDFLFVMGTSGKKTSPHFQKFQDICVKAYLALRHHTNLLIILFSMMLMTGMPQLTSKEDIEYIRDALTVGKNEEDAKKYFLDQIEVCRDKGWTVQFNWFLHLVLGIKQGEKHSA
Sequence (Q8WYR1 whole entry partner): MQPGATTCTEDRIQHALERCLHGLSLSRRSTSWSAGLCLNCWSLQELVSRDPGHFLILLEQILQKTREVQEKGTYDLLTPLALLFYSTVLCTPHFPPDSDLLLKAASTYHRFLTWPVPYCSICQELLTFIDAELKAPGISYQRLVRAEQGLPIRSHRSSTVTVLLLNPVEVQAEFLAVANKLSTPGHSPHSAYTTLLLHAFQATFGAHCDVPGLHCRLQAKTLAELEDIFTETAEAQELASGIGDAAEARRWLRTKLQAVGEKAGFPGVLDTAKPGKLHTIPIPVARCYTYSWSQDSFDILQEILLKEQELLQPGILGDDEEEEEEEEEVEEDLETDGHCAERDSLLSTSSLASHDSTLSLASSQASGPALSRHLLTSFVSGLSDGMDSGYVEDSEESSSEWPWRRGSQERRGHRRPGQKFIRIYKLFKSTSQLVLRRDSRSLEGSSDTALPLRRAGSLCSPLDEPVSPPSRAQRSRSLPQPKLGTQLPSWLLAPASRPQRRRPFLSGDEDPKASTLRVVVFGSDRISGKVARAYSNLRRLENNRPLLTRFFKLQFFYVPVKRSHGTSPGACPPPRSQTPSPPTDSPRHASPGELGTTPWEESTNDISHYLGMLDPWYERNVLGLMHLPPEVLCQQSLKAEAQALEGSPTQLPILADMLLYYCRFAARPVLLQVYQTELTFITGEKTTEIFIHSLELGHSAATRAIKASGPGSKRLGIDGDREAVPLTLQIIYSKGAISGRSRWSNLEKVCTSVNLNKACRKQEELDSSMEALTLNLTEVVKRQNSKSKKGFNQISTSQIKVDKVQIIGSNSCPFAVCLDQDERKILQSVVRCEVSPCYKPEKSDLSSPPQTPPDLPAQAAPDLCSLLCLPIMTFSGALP
TEST_PROTOCOL: TR-FRET enzymatic activity assay, PI3Kγ
Type: biochemical
EXPERIMENTAL_SETUP: recombinant heterodimeric PI3Kγ 2 nM, 2× Km ATP, 30 minutes at 25°C
READOUT: pIC50
The quantity pIC50 is defined as the negative base-10 logarithm of the molar concentration.

smiles_entry=CC[C@H](Nc1nc(N)nc(N)c1C#N)c1nc2c(F)ccc(Cl)c2c(=O)n1N1CCN(Cc2ccccc2)CC1 test_value=5.70
smiles_entry=C[C@H](Nc1nc(N)nc(N)c1C#N)c1nc2c(F)ccc(Cl)c2c(=O)n1N1CCN(Cc2ccccc2)CC1 test_value=6.33

Now consider the entry below.
Query :: Look up pIC50 for this molecule: "C[C@H](NC(=O)c1nc(Cl)c(N)nc1N)c1nc2cccc(Cl)c2c(=O)n1N1CCNCC1"
Result :: 5.13
